- System: HCT-116
- ASSAY_COMMENT: Antiproliferative activity against human HCT-116 cells assessed as inhibition of cell growth incubated for 48 hrs by CCK-8 assay
- Assay type: functional, cell-based
- COND: HCT-116, 48 h

>  <SMILES_STRING>
C[C@H]1COCCN1c1nc(-c2ccc(NC(=O)Nc3ccc4c(c3)COC4=O)cc2)nc(N2C3CCC2COC3)n1

>  <IC50>
5050 nM

$$$$
>  <SMILES_STRING>
O=C(Nc1ccc(-c2nc(N3CCOCC3)nc(N3C4CCC3CNC4)n2)cc1)Nc1ccc2c(c1)COC2=O

>  <IC50>
770 nM

$$$$
>  <SMILES_STRING>
O=C(Nc1ccc(-c2nc(N3CCOCC3)nc(N3C4CCC3COC4)n2)cc1)Nc1ccc2c(c1)COC2=O

>  <IC50>
732 nM

$$$$

----------
Recorded pIC50 values for a group of compounds are listed next.
- ASSAY_SYSTEM: Phosphatidylinositol 4,5-bisphosphate 3-kinase catalytic subunit beta isoform (Homo sapiens, UniProt P42338)
- Sequence (P42338 whole entry, canonical isoform): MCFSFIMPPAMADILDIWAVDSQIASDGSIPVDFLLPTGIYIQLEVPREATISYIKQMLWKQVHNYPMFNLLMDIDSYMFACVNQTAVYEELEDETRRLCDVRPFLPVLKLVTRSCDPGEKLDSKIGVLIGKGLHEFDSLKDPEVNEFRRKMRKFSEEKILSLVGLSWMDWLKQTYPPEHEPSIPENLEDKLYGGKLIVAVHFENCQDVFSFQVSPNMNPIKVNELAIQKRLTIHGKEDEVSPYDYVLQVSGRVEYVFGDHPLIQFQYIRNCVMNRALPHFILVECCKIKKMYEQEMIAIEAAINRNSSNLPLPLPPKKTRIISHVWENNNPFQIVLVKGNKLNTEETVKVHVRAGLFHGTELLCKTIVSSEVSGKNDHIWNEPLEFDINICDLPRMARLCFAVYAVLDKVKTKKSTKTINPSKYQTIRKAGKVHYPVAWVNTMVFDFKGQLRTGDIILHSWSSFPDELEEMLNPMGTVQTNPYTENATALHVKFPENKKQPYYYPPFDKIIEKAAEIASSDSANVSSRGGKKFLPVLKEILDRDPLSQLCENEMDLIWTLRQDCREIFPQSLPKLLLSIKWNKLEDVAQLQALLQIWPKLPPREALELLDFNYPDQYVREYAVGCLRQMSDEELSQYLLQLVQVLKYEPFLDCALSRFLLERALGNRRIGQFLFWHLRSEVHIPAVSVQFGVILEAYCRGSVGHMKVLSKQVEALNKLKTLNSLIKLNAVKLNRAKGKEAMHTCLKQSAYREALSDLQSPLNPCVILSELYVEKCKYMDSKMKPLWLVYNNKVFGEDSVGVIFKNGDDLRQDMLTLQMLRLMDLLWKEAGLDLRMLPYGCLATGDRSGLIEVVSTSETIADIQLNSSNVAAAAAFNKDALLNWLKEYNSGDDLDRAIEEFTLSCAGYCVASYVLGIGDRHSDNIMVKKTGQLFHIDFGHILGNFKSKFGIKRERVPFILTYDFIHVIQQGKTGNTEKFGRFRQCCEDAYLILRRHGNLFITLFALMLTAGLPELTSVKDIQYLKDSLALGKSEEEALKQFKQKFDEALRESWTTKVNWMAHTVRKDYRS
pIC50: −log10 of the molar value.

>  <SMILES_STRING>
O=C(Nc1ccc(-c2nc(N3C4CCC3COC4)nc(N3C4CCC3COC4)n2)cc1)Nc1ccc2c(c1)COC2=O

>  <MODIFIER>
<

>  <pIC50>
5.00

$$$$
>  <SMILES_STRING>
O=C(Nc1ccc(-c2nc(N3CCOCC3)nc(N3CCOCC3)n2)cc1)Nc1ccc2c(c1)CNC2=O

>  <MODIFIER>
=

>  <pIC50>
6.79

$$$$
>  <SMILES_STRING>
O=C(Nc1ccc(-c2nc(N3CCOCC3)nc(N3CCO[C@@H](CO)C3)n2)cc1)Nc1ccc2c(c1)COC2=O

>  <MODIFIER>
=

>  <pIC50>
6.80

$$$$
>  <SMILES_STRING>
O=C(Nc1ccc(-c2nc(N3CCOCC3)nc(N3C4CCC3COC4)n2)cc1)Nc1ccc2c(c1)COC2=O

>  <MODIFIER>
=

>  <pIC50>
6.11

$$$$

----------
- ASSAY_COMMENT: in vivo
- COND: BALB/c, mouse, iv, 5 mg/kg

>  <SMILES_STRING>
CN(C)C1CCN(C(=O)c2ccc(NC(=O)Nc3ccc(-c4nc(N5CCOCC5)nc(N5CCOCC5)n4)cc3)cc2)CC1

>  <AUC(0-inf) at 12 h>
5640 ng·h/mL

$$$$

----------
Recorded pIC50 values for a group of compounds are listed next.
- Test system: MDA-MB-231
- ASSAY_COMMENT: Antiproliferative activity against human MDA-MB-231 cells assessed as inhibition of cell growth incubated for 48 hrs by CCK-8 assay
- Assay type: functional, cell-based
- COND: MDA-MB-231, 48 h
pIC50: −log10 of the molar value.

>  <SMILES_STRING>
O=C(Nc1ccc(-c2nc(N3CCOCC3)nc(N3C4CCC3COC4)n2)cc1)Nc1ccc2c(c1)COC2=O

>  <pIC50>
5.35

$$$$
>  <SMILES_STRING>
C[C@H]1COCCN1c1nc(-c2ccc(NC(=O)Nc3ccc4c(c3)COC4=O)cc2)nc(N2C3CCC2COC3)n1

>  <pIC50>
5.46

$$$$
>  <SMILES_STRING>
O=C(Nc1ccc(-c2nc(N3CCOCC3)nc(N3C4CCC3CNC4)n2)cc1)Nc1ccc2c(c1)COC2=O

>  <pIC50>
4.92

$$$$
